Source listed as paper PMC3297693.

IC (TGI) values, listed per item
test system: full NCI 60 cell panel; experiment: NCI 60 five-concentration screen, mean graph midpoint of all cell lines; type: cell-based; conditions: Homo sapiens, 48 h, read-out: TGI MG-MID

{"smiles-input": "Cc1nn2c(/C=C3/C(=O)Nc4ccc(F)cc43)c(-c3ccc(Cl)cc3)nc2s1", "IC (TGI), µM": 93.3}
{"smiles-input": "COc1nc2sccn2c1/C=C1/C(=O)Nc2cc(Cl)ccc21", "IC (TGI), µM": 31.6}
{"smiles-input": "Cc1cn2c(/C=C3/C(=O)Nc4cc(Cl)ccc43)c(C)nc2s1", "IC (TGI), µM": 51.3}
{"smiles-input": "O=C1Nc2ccccc2/C1=C\\c1c(-c2ccccn2)nc2sccn12", "IC (TGI), µM": 50.1}
{"smiles-input": "COc1nc2sccn2c1/C=C1/C(=O)Nc2ccc(Cl)cc21", "IC (TGI), µM": 55}
